# Tested on: SK-MEL-28 melanoma
# Run description: NCI-60 one-dose screen, 48 h (100 = growth as untreated, 0 = no growth, -100 = all killed)
# Run parameters: 10 µM
This is part of a sample that, as a whole, favours compounds with a hit. Of some 83,000 tested, about 20% had one in any assay.
Observable: growth (%)
A number alone suffices; assume %.

Lookup: Look at this compound and give its reported growth. O=C1CCC(N2Cc3c(C#CCCCNC(=O)c4ccc(NC(=O)[C@@H]5NC6(CCCCC6)[C@@]6(C(=O)Nc7cc(Cl)ccc76)[C@H]5c5cccc(Cl)c5F)cc4)cccc3C2=O)C(=O)N1 (stereo partly drawn)
Found: 62.2

Lookup: Again, but for "O=C(Nc1cccc(-c2cn(-c3ccc4oc(=O)ccc4c3)nn2)c1)Nc1cc(C(F)(F)F)cc(C(F)(F)F)c1"
Found: 22.5

Lookup: Again, but for "CC1(C)CC[C@]2(C(=O)NCCCNCCCCNCCCN)CC[C@]3(C)C(=CC[C@@H]4[C@@]5(C)Cc6c([nH]c7ccccc67)C(C)(C)[C@@H]5CC[C@]43C)[C@H]2C1"
Found: 102

Lookup: Again, but for "CC(=C(c1ccc(OCCN2CCCCC2)cc1)c1ccc(OCCN2CCCCC2)cc1)c1ccccc1"
Found: -93.9

Lookup: Again, but for "CN1C(=O)/C(=C/c2nccs2)SC1=S"
Found: 95.8

Lookup: Again, but for "[2H]C([2H])([2H])Oc1ccc2ncc(C#Cc3cncc(C(=O)Nc4ccc(CN5CCN(C)CC5)c(C(F)(F)F)c4)c3)n2n1"
Found: -83.8

Lookup: Again, but for "COc1csc(/C=N/NC(=O)c2[nH]c3ccc(Br)cc3c2-c2ccccc2)c1"
Found: 35.3

Lookup: Again, but for "COc1cc(Cn2c(C(F)(F)F)cc3c(Cl)ncnc32)ccn1"
Found: 27.9

---

# Tested on: A498 renal
# Run description: NCI-60 one-dose screen, 48 h
# Run parameters: 10 µM
Compounds without any hit were thinned out: in the full panel of roughly 83,000, 20% have a hit. Calls of active or inactive are those of the source. How the source made its calls: active means growth percent below 10; inactive means the rest.
Outcome field: choose from YES = active, NO = inactive

Lookup: Hey, what did the test say about "N#Cc1ccc(NC(=O)CSc2ccc(-c3ccc(Br)cc3)nn2)cc1" ?
Found: NO

Lookup: Again, but for "O=C(NO)c1ccc(CNc2nc(-c3ccccc3)c3ccccc3n2)cc1"
Found: YES

Lookup: Again, but for "CCOc1ccc(Nc2nc3ccccc3nc2Nc2ccc(OCC)cc2)cc1"
Found: NO

Lookup: Again, but for COc1ccc([C@H]2C(C(=O)c3ccc(Cl)cc3)C3(N[C@@H]2c2ccccc2)C(=O)Nc2ccc(Cl)cc23)cc1 (some centres undefined)
Found: NO

Lookup: Again, but for "Cc1noc2c(Cc3ccc([N+](=O)[O-])cc3)nn(CC(=O)N/N=C/c3ccc(Br)cc3)c(=O)c12"
Found: NO

Lookup: Again, but for "N#C/C(=C\c1ccc(N(c2ccccc2)c2ccccc2)cc1)C(N)=O"
Found: YES

Lookup: Again, but for C/C(=C\CSc1ccccc1C(=O)O)CCCC(C)CCCC(C)CCCC(C)C (centres undefined)
Found: NO

Lookup: Again, but for "Cc1ccc(C(=O)NCCCNc2nc(Nc3ccc(N4CCN(C)CC4)cc3)nc3ccsc23)cc1"
Found: NO

Lookup: Again, but for "CCCn1c(=O)c2[nH]c(-c3ccc(OCc4nc5ccc(C(F)(F)F)cc5[nH]4)cc3)nc2n(CCC)c1=O"
Found: NO
